# Measurement Target: bovine cerebral TPK1 (Bos taurus, UniProt A0A3Q1MT31)
# Sequence (A0A3Q1MT31 1-419): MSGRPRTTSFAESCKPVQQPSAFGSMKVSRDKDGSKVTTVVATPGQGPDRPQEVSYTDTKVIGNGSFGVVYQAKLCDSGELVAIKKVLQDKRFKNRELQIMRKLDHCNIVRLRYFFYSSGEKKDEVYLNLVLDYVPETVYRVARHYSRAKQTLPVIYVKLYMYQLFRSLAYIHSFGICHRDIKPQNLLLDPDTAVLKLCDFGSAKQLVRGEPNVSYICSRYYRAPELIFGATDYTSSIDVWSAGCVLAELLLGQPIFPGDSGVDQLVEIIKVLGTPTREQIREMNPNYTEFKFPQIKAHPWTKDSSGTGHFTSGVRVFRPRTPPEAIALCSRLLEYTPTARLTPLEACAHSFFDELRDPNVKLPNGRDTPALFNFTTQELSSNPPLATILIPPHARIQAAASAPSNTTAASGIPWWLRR
Recorded Metric: pIC50
pIC50 is defined as minus the log10 of a concentration measured in mol/L.

Look at this compound and give its reported pIC50. Cn1c(N2CCO[C@@H](c3ccc(N4CCC(N5CCCC5)CC4)cc3)C2)nc(-c2ccncc2)cc1=O [compound 6] 8.47

What about Cn1c(N2CCO[C@@H](c3ccc(C(=O)NCCO)cc3)C2)nc(-c2ccncn2)cc1=O [Compound No. 210] ? 8.27

Another compound to look at: CN(C)CC(=O)Nc1ccc([C@H]2CN(c3nc(-c4ccncn4)cc(=O)n3C)CCO2)cc1 [Compound No. 220] 9.32

Next up: Cn1c(N2CCO[C@@H](c3ccc(Nc4ccncc4)cc3)C2)nc(-c2ccncc2)cc1=O [compound 50] 8.32

Please do the same for COC(=O)Nc1ccc([C@H]2CN(c3nc(-c4ccncc4)cc(=O)n3C)CCO2)cc1 [Compound No. 231] as well. 8.24

Sourced from patent US8106045B2
